target: HLA-A*03:01; assay: IEDB peptide-MHC binding, purified MHC/direct/fluorescence; filed as Kd, often an IC50 or EC50 that approximates it; bounds were set here for any values at or beyond the usual limits of such assays; conditions: source organism: Coxiella burnetii
Measured Endpoint: Kd

AISRLRTQK; 386 nM
MTFPVSLEY; 48.2 nM

Next sequence, Kd to be filled in.
Query block: For the sequence shown here, `EIYRTLYGL` , give the reported Kd.
Result block: ≥ 20000 nM

* * *

biological target: HLA-A*02:16; experiment: IEDB peptide-MHC binding, purified MHC/direct/fluorescence; filed as Kd, often an IC50 or EC50 that approximates it; bounds were set here for any values at or beyond the usual limits of such assays; settings: source organism: Squirrelpox virus
pKd: −log10 of the molar value.
Measured Endpoint: pKd

Query block: May I ask what pKd has been recorded for `MACHRVLTY` ?
Result block: ≤ 4.70

* * *

biological target: HLA-A*02:16; assay: IEDB peptide-MHC binding, purified MHC/competitive/fluorescence; filed as Kd, often an IC50 or EC50 that approximates it; bounds were set here for any values at or beyond the usual limits of such assays; settings: source organism: Vibrio vulnificus YJ016
Measured Endpoint: Kd

Query block: Any idea what its Kd is? The sequence is `IALPVAWLF`
Result block: ≥ 20 µM

* * *

biological target: HLA-A*02:01; assay: IEDB peptide-MHC binding, purified MHC/competitive/radioactivity; filed as Kd, often an IC50 or EC50 that approximates it; bounds were set here for any values at or beyond the usual limits of such assays; settings: source organism: Dengue virus 4 Philippines/H241/1956
Measured Endpoint: Kd (nM)
Answers are plain numbers, in nM.

Past entries and their recorded results:
MVLAFITFL; 16.9
FIDGISLGL; 18.9

Now consider the entry below.
Query block: Which measured Kd belongs to `MTLWYMWQV` , tested on HLA-A*02:01?
Result block: 13.7

* * *

biological target: HLA-A*03:01; assay: IEDB peptide-MHC binding, purified MHC/direct/fluorescence; filed as Kd, often an IC50 or EC50 that approximates it; bounds were set here for any values at or beyond the usual limits of such assays; settings: source organism: Mammarenavirus lassaense
Measured Endpoint: Kd (nM)
Give bare numbers, in nM.

Query block: Give HLA-A*03:01 Kd for `RTRDIYISR`
Result block: 98.5

* * *

Assign Kd to each entry below.
molecular target: HLA-A*30:02; experiment: IEDB peptide-MHC binding, purified MHC/competitive/radioactivity; filed as Kd, often an IC50 or EC50 that approximates it; bounds were set here for any values at or beyond the usual limits of such assays; conditions: source organism: SARS coronavirus Tor2

Before answering, review these 5 worked examples.
ELADTSLSGY; 76.7 nM
KIEELFYSY; 11.6 nM
VTYNCCDDDY; 80 nM
KFADDLNQM; ≥ 30000 nM
ESASKSASVY; 659 nM

Batch lookup, Kd per entry.
1. TVDSSQGSEY
2. NSKVQIGEY
3. VWLGFIAGL
4. IFFASFYYI
5. KWDLIISDMY
6. FYLCFLAFLL
7. DPAKAYKDY

Result block:
1. 414 nM
2. 57.2 nM
3. 12 nM
4. 5130 nM
5. 85.9 nM
6. ≥ 85700 nM
7. 9270 nM

Where do the numbers come from? From the Immune Epitope Database (IEDB).
